experiment: Bovine sGC stimulation measured as relative enzyme activity (percentage of DEA/NO response for the compound to compound 3); type: functional
Endpoint Label: REA
Response field accepts a number only; no unit should be typed.

Previously resolved entries follow.
CC(=O)n1nc(OCCCN(C)C)c2ccccc21 :: 0.82
CN(C)CCCOc1nn(C(=O)N(C)C)c2ccccc12 :: 0.78

Param item = "CN(C)CCCOc1nn(S(C)(=O)=O)c2ccccc12" ; retrieve measured REA. 1.07

Which REA value is on record for "CN(C)CCCOc1nn(CCc2ccccc2)c2ccccc12" ? 0.84

I'd like to know its REA. The compound in question is "CN(C)CCCOc1cc(-c2ccoc2)[nH]n1" 1.31

* * *

assay: Bioavailability in rat after (dose 5 mg/kg p.o.); format: ADME, organism-based; settings: in vivo, po
Endpoint Label: bioavailability

So what does the record say about bioavailability for "CN(C)CCCOc1cc(-c2ccccc2)n(-c2ccccc2)n1" ? < 2%

* * *

species on record: Homo sapiens; assay: Concentration required to inhibit collagen-induced platelet aggregation by 50%; type: functional
Endpoint Label: IC50 (µM)
State the answer as a number, implicitly in µM.

Here's what some known entries look like.
CN(C)CCCOc1cc(-c2ccccc2)n(-c2ccccc2)n1 :: 2.84
CN(C)CCCOc1[nH]ncc1-c1ccccc1 :: 12

Continue with the next compound.
Param item = CC(COc1nn(Cc2ccccc2)c2ccccc12)CN(C)C (stereo not drawn) ; retrieve measured IC50. 4.18

* * *

assay: Bovine sGC stimulation measured as relative enzyme activity (percentage of DEA/NO response for the compound to compound 3); assay type: functional
API: label(entry) gives label 1 if the entry's REA is strictly smaller than 1; on equality or larger values it gives label 0.

Some solved cases for reference:
CN(C)CCCOc1cc(-c2ccncc2)[nH]n1 :: label 0
CN(C)CCCOc1nn(CCCN(C)C)c2ccccc12 :: label 1
CN(C)CCCOc1cc(C(=O)N(C)C)n(Cc2ccccc2)n1 :: label 1
CN(C)CCCOc1nn(-c2ccccc2)c2ccccc12 :: label 0
CN(C)CCCCOc1nn(Cc2ccccc2)c2ccccc12 :: label 1

Is REA strictly under 1 for the entry "COc1ccc(NC(=O)c2cc(OCCCN(C)C)nn2Cc2ccccc2)cc1" ? label 0

Does this molecule meet the criterion REA < 1? "CN(C)CCCOc1[nH]ncc1-c1ccccc1" label 0

Confirm or reject: REA of "CN(C)CCCOc1cc(C(F)(F)F)[nH]n1" lies strictly below 1 label 0
